Every entry's value here was drawn from patent US8192717B2.

- Protocol summary: Radioactivity distribution in mouse body after intravenous administration of radioiodine labeled forms
- Details: mouse, intravenous administration, blood, 2 min after administration; mean (SD) of 3 to 5 mice
- Protocol: Thereafter, 100 μl (0.5 to 1 μCi) of each labeled form was intravenously administered to each group consisting of three to five 5-week-old ddY male mice (25 to 30 g). 2, 10, 30, and 60 minutes after the intravenous administration, such mice were decapitated, and blood was collected. Thereafter, organs were excised, and the weight and radioactivity thereof were then measured.
Metric: Distribution of radioactivity, Blood

As a guide, the following entries are already answered.
1. CNc1ccc(-c2cc(=O)c3cc([125I])ccc3o2)cc1 [[125I]Compound 10]    1.89 (0.28) % ID/g
2. COc1ccc(-c2cc(=O)c3cc([125I])ccc3o2)cc1 [[125I]Compound 19]    1.87 (0.21) % ID/g

In plain terms, O=c1cc(-c2ccc(O)cc2)oc2ccc([125I])cc12 [[125I]Compound 20] has a documented Distribution of radioactivity, Blood of 2.77 (0.43) % ID/g

In plain terms, CN(C)c1ccc(-c2cc(=O)c3cc([125I])ccc3o2)cc1 [[125I]Compound 11] has a documented Distribution of radioactivity, Blood of 1.87 (0.18) % ID/g

In plain terms, COc1cc(/C=C/C(=O)c2cccc([125I])c2)ccc1O [[125I]Compound 31] has a documented Distribution of radioactivity, Blood of 4.90 (0.52) % ID/g

In plain terms, Nc1ccc(C=Cc2cc(=O)c3cc([125I])ccc3o2)cc1 [[125I]Compound 46] has a documented Distribution of radioactivity, Blood of 2.34 (0.16) % ID/g

In plain terms, CN(C)c1ccc(C=Cc2cc(=O)c3cc([125I])ccc3o2)cc1 [[125I]Compound 48] has a documented Distribution of radioactivity, Blood of 14.54 (3.37) % ID/g

In plain terms, CNc1ccc(C=Cc2cc(=O)c3cc([125I])ccc3o2)cc1 [[125I]Compound 47] has a documented Distribution of radioactivity, Blood of 3.21 (0.38) % ID/g

###

Listed here: items and their measured Distribution of radioactivity, Brain.
- Protocol summary: Radioactivity distribution in mouse body after intravenous administration of radioiodine labeled forms
- Details: mouse, intravenous administration, brain, 60 min after administration; mean (SD) of 3 to 5 mice

1) CN(C)c1ccc(-c2cc(=O)c3cc([125I])ccc3o2)cc1 [[125I]Compound 11]    0.99 (0.10) % ID/g
2) CN(C)c1ccc(C=Cc2cc(=O)c3cc([125I])ccc3o2)cc1 [[125I]Compound 48]    0.77 (0.25) % ID/g
3) COc1ccc(-c2cc(=O)c3cc([125I])ccc3o2)cc1 [[125I]Compound 19]    0.17 (0.05) % ID/g

In plain terms, CNc1ccc(C=Cc2cc(=O)c3cc([125I])ccc3o2)cc1 [[125I]Compound 47] has a documented Distribution of radioactivity, Brain of 0.99 (0.09) % ID/g

In plain terms, COc1cc(/C=C/C(=O)c2cccc([125I])c2)ccc1O [[125I]Compound 31] has a documented Distribution of radioactivity, Brain of 0.35 (0.05) % ID/g

In plain terms, Nc1ccc(C=Cc2cc(=O)c3cc([125I])ccc3o2)cc1 [[125I]Compound 46] has a documented Distribution of radioactivity, Brain of 1.62 (0.40) % ID/g

In plain terms, O=c1cc(-c2ccc(O)cc2)oc2ccc([125I])cc12 [[125I]Compound 20] has a documented Distribution of radioactivity, Brain of 0.08 (0.02) % ID/g

In plain terms, CNc1ccc(-c2cc(=O)c3cc([125I])ccc3o2)cc1 [[125I]Compound 10] has a documented Distribution of radioactivity, Brain of 1.19 (0.04) % ID/g
